Where do these numbers come from? They come from ChEMBL document CHEMBL3991601.

# SYSTEM NAME: UniProt O60674
# Sequence (O60674 whole entry): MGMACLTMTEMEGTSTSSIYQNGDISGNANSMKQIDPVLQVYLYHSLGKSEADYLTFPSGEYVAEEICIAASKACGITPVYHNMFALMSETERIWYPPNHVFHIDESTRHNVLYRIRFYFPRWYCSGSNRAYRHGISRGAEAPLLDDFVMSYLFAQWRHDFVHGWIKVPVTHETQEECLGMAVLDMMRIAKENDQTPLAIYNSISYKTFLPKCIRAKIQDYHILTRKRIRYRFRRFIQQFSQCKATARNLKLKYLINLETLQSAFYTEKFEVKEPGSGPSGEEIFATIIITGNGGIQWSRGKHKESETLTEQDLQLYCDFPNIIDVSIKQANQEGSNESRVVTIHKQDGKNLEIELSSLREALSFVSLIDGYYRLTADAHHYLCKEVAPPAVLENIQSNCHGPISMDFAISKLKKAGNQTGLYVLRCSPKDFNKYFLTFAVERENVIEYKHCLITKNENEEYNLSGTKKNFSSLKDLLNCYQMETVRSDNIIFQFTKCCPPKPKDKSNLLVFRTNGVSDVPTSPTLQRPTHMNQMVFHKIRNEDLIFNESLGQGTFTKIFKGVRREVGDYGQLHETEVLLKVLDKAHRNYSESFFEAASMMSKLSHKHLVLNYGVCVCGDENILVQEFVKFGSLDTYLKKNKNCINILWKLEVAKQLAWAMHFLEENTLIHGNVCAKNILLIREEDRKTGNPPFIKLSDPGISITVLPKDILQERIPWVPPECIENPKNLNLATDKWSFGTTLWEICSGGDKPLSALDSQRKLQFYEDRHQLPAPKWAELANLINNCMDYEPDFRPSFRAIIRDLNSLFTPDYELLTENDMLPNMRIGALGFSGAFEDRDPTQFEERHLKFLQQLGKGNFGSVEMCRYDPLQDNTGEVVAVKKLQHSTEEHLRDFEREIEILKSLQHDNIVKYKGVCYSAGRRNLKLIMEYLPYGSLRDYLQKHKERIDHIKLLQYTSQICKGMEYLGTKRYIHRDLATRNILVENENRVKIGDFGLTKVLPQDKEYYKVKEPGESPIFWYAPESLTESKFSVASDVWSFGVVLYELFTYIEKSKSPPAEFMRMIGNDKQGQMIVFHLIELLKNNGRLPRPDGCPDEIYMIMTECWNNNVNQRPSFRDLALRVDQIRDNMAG
The source made the active and inactive calls.
Respond using exactly one of the listed classes: t = active, f = inactive

Solved entries:
- SMILES CODE: "Cn1cc(-c2cnc3ccc4ccc(CS(=O)(=O)NCc5ccccn5)cc4c(=O)c3c2)cn1"
  ASSIGNED CLASS: "f"
- SMILES CODE: "N#CC1(c2ccc(NC(=O)c3cccnc3NCc3ccncc3)cc2)CCCC1"
  ASSIGNED CLASS: "f"
- SMILES CODE: "Cc1cnc(NC(=O)Nc2cc(Br)c(C)cc2OC[C@@H]2CNCCO2)cn1"
  ASSIGNED CLASS: "f"
- SMILES CODE: "Cc1cc(C(=O)NOCCO)c(Nc2ccc(I)cc2F)n(C)c1=O"
  ASSIGNED CLASS: "f"
- SMILES CODE: "CCn1cc(-c2ccnc3[nH]c(-c4cccc(CN(C)C)c4)cc23)c(-c2ccc(NC(=O)N(C)C)cc2)n1"
  ASSIGNED CLASS: "f"

Outcome? CO[C@H]1C[C@@H]2CC[C@@H](C)[C@@](O)(O2)C(=O)C(=O)N2CCCC[C@H]2C(=O)O[C@H]([C@H](C)C[C@@H]2CC[C@@H](OP(C)(C)=O)[C@H](OC)C2)CC(=O)[C@H](C)/C=C(\C)[C@@H](O)[C@@H](OC)C(=O)[C@H](C)C[C@H](C)/C=C/C=C/C=C/1C f

Each compound tested received a call. Report the one for CO[C@H]1C[C@@H]2CC[C@@H](C)[C@@](O)(O2)C(=O)C(=O)N2CCCC[C@H]2C(=O)O[C@H]([C@H](C)C[C@@H]2CC[C@@H](O)[C@H](OC)C2)CC(=O)[C@H](C)/C=C(\C)[C@@H](O)[C@@H](OC)C(=O)[C@H](C)C[C@H](C)/C=C/C=C/C=C/1C . f

====

The source made the active and inactive calls.
A set of compounds tested on Mitogen-activated protein kinase kinase kinase 5 (Homo sapiens, UniProt Q99683), with measured Kd:

Here's what some known entries look like.
- COMPOUND: "O=C(Nc1nc2cccc(-c3ccc(CN4CCS(=O)(=O)CC4)cc3)n2n1)C1CC1"
  VALUE TYPE: "Kd"
  VALUE REPORTED: "> 30 µM (inactive)"
- COMPOUND: "Cc1nc2cc(-n3ncc(C(=O)c4cc5ccccc5[nH]4)c3N)ccc2[nH]1"
  VALUE TYPE: "Kd"
  VALUE REPORTED: "> 30 µM (inactive)"
- COMPOUND: "NC1(c2ccc(-c3nc4ccn5c(=O)[nH]nc5c4cc3-c3ccccc3)cc2)CCC1"
  VALUE TYPE: "Kd"
  VALUE REPORTED: "> 30 µM (inactive)"
- COMPOUND: "C=CC(=O)Nc1cc2c(Nc3ccc(F)c(Cl)c3)ncnc2cc1C#CC(C)(C)N1CCN(C)CC1 [AV-412 FREE BASE]"
  VALUE TYPE: "Kd"
  VALUE REPORTED: "> 30 µM (inactive)"
- COMPOUND: "CCNC(=O)C#Cc1ccc2c(c1)NC(=O)/C2=C(\\Nc1ccc(CN(C)C)cc1)c1ccccc1"
  VALUE TYPE: "Kd"
  VALUE REPORTED: "> 30 µM (inactive)"

Below are 4 compounds. Give each one its Kd.
1. Cn1cc(-c2cnn3c(N)c(Br)c([C@@H]4CCCNC4)nc23)cn1
2. COc1cc([C@@H]2c3cc4c(cc3[C@H](O)[C@H]3COC(=O)[C@@H]23)OCO4)cc(OC)c1OC
3. Cc1[nH]c(/C=C2\C(=O)Nc3ccccc32)c(C)c1CCC(=O)O [ORANTINIB]
4. Cc1cc(Nc2ncc(Cl)c(Nc3ccccc3S(=O)(=O)C(C)C)n2)c(OC(C)C)cc1C1CCNCC1

1. > 30 µM (inactive)
2. > 30 µM (inactive)
3. > 30 µM (inactive)
4. > 30 µM (inactive)

====

# SYSTEM NAME: UniProt:Q9NYV4
# Sequence (Q9NYV4 whole entry): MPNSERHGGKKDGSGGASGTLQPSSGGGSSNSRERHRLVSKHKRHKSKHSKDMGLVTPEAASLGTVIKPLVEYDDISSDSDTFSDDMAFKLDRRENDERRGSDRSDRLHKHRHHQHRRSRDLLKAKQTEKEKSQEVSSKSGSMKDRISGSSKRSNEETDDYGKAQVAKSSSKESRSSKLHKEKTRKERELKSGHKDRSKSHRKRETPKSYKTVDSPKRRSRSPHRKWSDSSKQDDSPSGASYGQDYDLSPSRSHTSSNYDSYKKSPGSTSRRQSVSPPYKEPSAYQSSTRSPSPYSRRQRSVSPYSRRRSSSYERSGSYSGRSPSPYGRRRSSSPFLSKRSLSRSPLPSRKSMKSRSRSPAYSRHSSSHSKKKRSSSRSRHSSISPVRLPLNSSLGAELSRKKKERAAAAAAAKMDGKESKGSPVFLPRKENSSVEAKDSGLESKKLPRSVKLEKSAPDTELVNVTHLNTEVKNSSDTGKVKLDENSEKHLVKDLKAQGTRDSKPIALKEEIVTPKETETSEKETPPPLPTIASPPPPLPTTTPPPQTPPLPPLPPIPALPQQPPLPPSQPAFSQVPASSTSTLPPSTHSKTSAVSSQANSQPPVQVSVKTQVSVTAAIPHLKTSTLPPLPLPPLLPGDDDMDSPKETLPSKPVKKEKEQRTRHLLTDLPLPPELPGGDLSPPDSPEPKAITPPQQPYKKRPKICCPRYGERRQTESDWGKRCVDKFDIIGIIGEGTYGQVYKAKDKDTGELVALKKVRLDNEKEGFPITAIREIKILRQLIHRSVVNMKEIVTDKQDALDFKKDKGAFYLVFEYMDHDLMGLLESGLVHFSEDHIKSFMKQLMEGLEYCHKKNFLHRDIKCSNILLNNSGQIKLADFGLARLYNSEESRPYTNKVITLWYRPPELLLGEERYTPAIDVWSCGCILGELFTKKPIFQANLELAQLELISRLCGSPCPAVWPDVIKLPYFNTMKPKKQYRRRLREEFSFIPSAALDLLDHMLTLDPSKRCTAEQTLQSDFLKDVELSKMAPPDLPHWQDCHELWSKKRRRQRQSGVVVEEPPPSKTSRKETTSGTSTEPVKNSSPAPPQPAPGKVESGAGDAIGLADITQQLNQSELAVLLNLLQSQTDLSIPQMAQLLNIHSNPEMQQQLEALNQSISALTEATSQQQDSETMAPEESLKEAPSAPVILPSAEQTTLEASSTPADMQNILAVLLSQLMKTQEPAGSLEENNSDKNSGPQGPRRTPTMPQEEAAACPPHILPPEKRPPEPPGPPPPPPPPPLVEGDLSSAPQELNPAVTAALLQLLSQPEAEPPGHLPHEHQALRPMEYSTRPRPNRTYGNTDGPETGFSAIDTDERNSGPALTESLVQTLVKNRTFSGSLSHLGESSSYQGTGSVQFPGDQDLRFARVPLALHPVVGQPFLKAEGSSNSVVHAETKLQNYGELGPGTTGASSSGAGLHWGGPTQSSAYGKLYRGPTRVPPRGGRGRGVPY
Calls of active or inactive are those of the source.
Please state which outcome applies, choosing from active, inactive

Please review the following examples before continuing.
- COMPOUND: "O=C(Nc1nc2cccc(-c3ccc(CN4CCS(=O)(=O)CC4)cc3)n2n1)C1CC1"
  ASSIGNED CLASS: "inactive"
- COMPOUND: "CCS(=O)(=O)c1cccc(-c2cc(C(=O)NC3CCN(C)CC3)c(C)c3[nH]c4ncc(C)cc4c23)c1"
  ASSIGNED CLASS: "inactive"
- COMPOUND: "Cc1nc2cc(-n3ncc(C(=O)c4cc5ccccc5[nH]4)c3N)ccc2[nH]1"
  ASSIGNED CLASS: "inactive"

Write down the call the test reported for this compound. Item: CC(=O)NCC(=O)N1[C@@H]2CC[C@H]1c1ccc(Nc3ncc(C(F)(F)F)c(NC4CCC4)n3)cc12 inactive

Hi, sorry to bother you, what did the test record for N#CC[C@H](C1CCCC1)n1cc(-c2ncnc3[nH]ccc23)cn1 ? inactive

Give the logged outcome of this assay for the following compound: Cc1nc(NC(=O)N2CCC[C@H]2C(N)=O)sc1-c1ccnc(C(C)(C)C(F)(F)F)c1 inactive

Recorded test outcome, item CC(C)c1cc(CNc2nc(Nc3cc(C4CC4)[nH]n3)cc(N3CCN(C)CC3)n2)on1 inactive

Per the records of this test, what outcome belongs to COc1cc2ncnc(Oc3cccc(NC(=O)Nc4cc(C(C)(C)C(F)(F)F)on4)c3)c2cc1OC ? inactive

====

# SYSTEM NAME: Tyrosine-protein kinase CSK (Homo sapiens); also: in the data inactive means no Kd found up to 30 µM
# Sequence (P41240 whole entry): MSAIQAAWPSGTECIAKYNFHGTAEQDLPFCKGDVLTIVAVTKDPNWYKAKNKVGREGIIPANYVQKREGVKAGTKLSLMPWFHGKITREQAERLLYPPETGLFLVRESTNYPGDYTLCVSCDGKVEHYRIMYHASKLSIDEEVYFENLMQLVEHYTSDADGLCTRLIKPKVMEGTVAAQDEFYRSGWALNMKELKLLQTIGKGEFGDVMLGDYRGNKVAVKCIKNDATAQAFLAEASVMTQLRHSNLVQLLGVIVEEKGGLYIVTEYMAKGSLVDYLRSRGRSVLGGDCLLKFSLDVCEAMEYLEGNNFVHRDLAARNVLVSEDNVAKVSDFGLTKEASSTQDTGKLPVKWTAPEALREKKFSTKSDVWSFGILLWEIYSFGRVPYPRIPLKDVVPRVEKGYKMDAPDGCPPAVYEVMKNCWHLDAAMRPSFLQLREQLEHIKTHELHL
The source made the active and inactive calls.
Lab note: assign the record to one of Yes = active, No = inactive

- MOLECULE: "CC(C)(C)c1nc(-c2cccc(NS(=O)(=O)c3c(F)cccc3F)c2F)c(-c2ccnc(N)n2)s1 [DABRAFENIB]"
  ASSIGNED CLASS: "Yes"
- MOLECULE: "Cc1cnc(NC(=O)Nc2cc(Br)c(C)cc2OC[C@@H]2CNCCO2)cn1 [RABUSERTIB]"
  ASSIGNED CLASS: "No"

I would be grateful if you could indicate the recorded call for CCNC(=O)C#Cc1ccc2c(c1)NC(=O)/C2=C(\Nc1ccc(CN(C)C)cc1)c1ccccc1 . No

Would you mind telling me which call this test gave NC1(c2ccc(-c3nc4ccn5c(=O)[nH]nc5c4cc3-c3ccccc3)cc2)CCC1 [MK-2206] ? No

====

# SYSTEM NAME: Serine/threonine-protein kinase LATS1 (Homo sapiens); also: in the data inactive means no Kd found up to 30 µM
# Sequence (O95835 whole entry): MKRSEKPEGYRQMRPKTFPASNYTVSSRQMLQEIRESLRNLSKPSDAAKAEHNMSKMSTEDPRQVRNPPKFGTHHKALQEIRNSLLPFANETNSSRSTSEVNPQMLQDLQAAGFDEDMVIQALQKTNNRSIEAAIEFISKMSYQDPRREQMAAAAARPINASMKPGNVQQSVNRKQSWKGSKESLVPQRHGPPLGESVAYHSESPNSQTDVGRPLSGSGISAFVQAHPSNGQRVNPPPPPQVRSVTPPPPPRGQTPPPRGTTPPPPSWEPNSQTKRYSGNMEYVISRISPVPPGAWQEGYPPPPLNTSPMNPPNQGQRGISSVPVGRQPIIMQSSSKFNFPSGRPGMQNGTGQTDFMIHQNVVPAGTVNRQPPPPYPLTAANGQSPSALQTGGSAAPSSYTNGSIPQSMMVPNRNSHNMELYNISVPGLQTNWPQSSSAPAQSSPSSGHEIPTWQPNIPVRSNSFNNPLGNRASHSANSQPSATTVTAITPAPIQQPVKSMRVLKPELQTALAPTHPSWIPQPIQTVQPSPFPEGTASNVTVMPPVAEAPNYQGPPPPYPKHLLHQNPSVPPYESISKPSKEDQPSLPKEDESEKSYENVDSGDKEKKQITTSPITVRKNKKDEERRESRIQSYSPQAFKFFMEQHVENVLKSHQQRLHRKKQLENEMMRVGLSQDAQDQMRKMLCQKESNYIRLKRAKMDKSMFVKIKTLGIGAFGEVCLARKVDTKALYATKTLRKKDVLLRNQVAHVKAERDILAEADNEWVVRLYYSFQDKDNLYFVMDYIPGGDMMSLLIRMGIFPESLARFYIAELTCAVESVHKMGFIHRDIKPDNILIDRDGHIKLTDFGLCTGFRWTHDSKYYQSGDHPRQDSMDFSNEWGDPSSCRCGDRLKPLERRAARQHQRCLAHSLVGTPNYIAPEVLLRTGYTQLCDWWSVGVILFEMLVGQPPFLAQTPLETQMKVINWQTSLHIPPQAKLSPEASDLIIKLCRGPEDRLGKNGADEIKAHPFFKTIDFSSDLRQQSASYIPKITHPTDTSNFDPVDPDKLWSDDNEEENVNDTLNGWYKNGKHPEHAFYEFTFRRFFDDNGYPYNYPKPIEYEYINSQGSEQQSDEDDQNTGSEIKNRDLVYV
Calls of active or inactive are those of the source.
Your reply should match one of these outcome classes. 1 for active, 0 for inactive

Please share the test call associated with C[C@@H](Oc1cc(C(=O)Nc2ccc(C(=O)N3CCN(C)CC3)cc2)nnc1N)c1c(Cl)ccc(F)c1Cl . 0

Tell me the assay call for CCNC(=O)C#Cc1ccc2c(c1)NC(=O)/C2=C(\Nc1ccc(CN(C)C)cc1)c1ccccc1 please. 1

Lab log entry: O=C(Nc1nc2cccc(-c3ccc(CN4CCS(=O)(=O)CC4)cc3)n2n1)C1CC1 [FILGOTINIB] — outcome as called in the assay? 0

====

# SYSTEM NAME: Dual specificity protein kinase CLK1 (Homo sapiens, UniProt P49759); also: in the data inactive means no Kd found up to 30 µM
# Sequence (P49759 whole entry): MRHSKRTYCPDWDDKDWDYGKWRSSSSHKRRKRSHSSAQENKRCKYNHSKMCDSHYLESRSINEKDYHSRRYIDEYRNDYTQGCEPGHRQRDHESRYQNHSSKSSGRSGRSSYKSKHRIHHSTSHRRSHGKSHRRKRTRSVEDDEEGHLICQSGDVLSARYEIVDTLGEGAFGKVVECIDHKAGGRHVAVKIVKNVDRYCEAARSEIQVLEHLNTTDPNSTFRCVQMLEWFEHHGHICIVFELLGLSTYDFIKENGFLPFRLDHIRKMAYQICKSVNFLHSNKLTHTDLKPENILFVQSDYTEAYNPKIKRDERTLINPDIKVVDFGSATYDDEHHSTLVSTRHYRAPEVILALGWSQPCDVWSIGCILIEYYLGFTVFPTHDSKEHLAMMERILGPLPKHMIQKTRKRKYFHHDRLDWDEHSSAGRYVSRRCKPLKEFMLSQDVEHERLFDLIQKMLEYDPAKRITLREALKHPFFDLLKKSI
Where a name gives a salt, the structure may show the parent alone. Active and inactive are the calls of the source.
Your answer must be one of the following: active, inactive

- COMPOUND: "COc1cc2c(Nc3ccc(Cl)c(Cl)c3F)ncnc2cc1OC[C@@H]1C[C@@H]2CN(C)C[C@@H]2C1"
  ASSIGNED CLASS: "inactive"
- COMPOUND: "CCS(=O)(=O)N1CCN(c2ccc(Nc3ncc(C(N)=O)c(NC4CC4)n3)cc2)CC1 [Cerdulatinib Hydrochloride]"
  ASSIGNED CLASS: "inactive"
- COMPOUND: "O=C1NC(=O)[C@@H](c2cn3c4c(cccc24)CCC3)[C@@H]1c1c[nH]c2ccccc12 [TIVANTINIB]"
  ASSIGNED CLASS: "inactive"
- COMPOUND: "CC(C)c1cc(CNc2nc(Nc3cc(C4CC4)[nH]n3)cc(N3CCN(C)CC3)n2)on1"
  ASSIGNED CLASS: "inactive"
- COMPOUND: "CCS(=O)(=O)c1cccc(-c2cc(C(=O)NC3CCN(C)CC3)c(C)c3[nH]c4ncc(C)cc4c23)c1"
  ASSIGNED CLASS: "inactive"

In this assay, the call recorded for CO[C@H]1C[C@@H]2CC[C@@H](C)[C@@](O)(O2)C(=O)C(=O)N2CCCC[C@H]2C(=O)O[C@H]([C@H](C)C[C@@H]2CC[C@@H](OP(C)(C)=O)[C@H](OC)C2)CC(=O)[C@H](C)/C=C(\C)[C@@H](O)[C@@H](OC)C(=O)[C@H](C)C[C@H](C)/C=C/C=C/C=C/1C was what? inactive

So what was the verdict on O=C(Nc1cc(C(F)(F)F)cc(C(F)(F)F)c1)c1cc(Cl)ccc1O in this test? inactive

// param item: CCn1cc(-c2ccnc3[nH]c(-c4cccc(CN(C)C)c4)cc23)c(-c2ccc(NC(=O)N(C)C)cc2)n1 ; yields the recorded call inactive

Record request — test call for NC(=O)c1c(OCc2c(F)cc(Br)cc2F)nsc1NC(=O)NCCCCN1CCCC1 inactive
